B1: F1*; the commonest letter at each place (parent)
chain: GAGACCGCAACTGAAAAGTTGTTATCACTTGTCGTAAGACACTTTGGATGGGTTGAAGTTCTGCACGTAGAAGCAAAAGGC

- Variants of: B1
- experimentDescription: fraction ligated after 30 min (ligated reads / total reads); higher = more ligase activity
- testConditions: with F1*sub RNA substrate (template-directed ligation), 42 °C
If the reported fraction ligated equals or exceeds 0.8, assign 1. If not, assign -1.

QUERY: Please indicate if the recorded fraction ligated for T43C A57C meets or exceeds 0.8.
RESULT: -1

QUERY: API: above_or_equal(metric=fraction ligated, cutoff=0.8) for item G31T A36C
RESULT: -1

QUERY: Hi team, for A37C G55C , is the recorded fraction ligated at or above 0.8?
RESULT: 1

QUERY: Determine whether measured fraction ligated meets or exceeds 0.8 for G47T A57G
RESULT: -1

QUERY: Please check the record C42A T44A and state if its fraction ligated is at or above 0.8.
RESULT: 1

Taken from the supplement of paper PMC6755084.
